- Test system: Rattus norvegicus
- protocol-text: Volume of distribution at steady state in rat at 1 mg/kg, iv
- Format: ADME, organism-based
- experimental-setup: in vivo
Listed compounds paired with reported Vdss
Unit L/kg implied. Number only.

record-smiles: C=C1c2c(-c3ccc(Oc4ccccc4)cc3)c3c(N)ncnc3n2C[C@H]1NC(=O)C#CC
measured-target: Rattus norvegicus
Vdss, L/kg: 1.39

Here's the next entry for you.
For C=CC(=O)N[C@@H]1Cn2c(c(-c3ccc(Oc4ccccc4)cc3)c3c(N)ncnc32)C1=C , write its Vdss.
1.3

###

- protocol-text: Oral bioavailability in rat at 3 mg/kg
- Assay type: ADME, organism-based
- experimental-setup: in vivo
experimental-readout: bioavailability (%)
Unit % implied. Number only.

For C=CC(=O)N[C@@H]1Cn2c(c(-c3ccc(C(=O)Nc4ccccn4)cc3)c3c(N)ncnc32)C1=C , write its bioavailability.
8.24
